src = ChEMBL document CHEMBL1122089

Listed below: Potency values for each entry.
- Species on record: Rattus norvegicus
- assayMethodText: Suppression of estrus cyclicity in rat relative to [D-Trp6, ProNHEt9].
- Assay type: functional
Just the number, please, no unit after it.

Exercise: Quote Potency reported for Cc1cc(C)c(C[C@@H](NC(=O)[C@H](Cc2ccc(O)cc2)NC(=O)[C@H](CO)NC(=O)[C@H](Cc2c[nH]c3ccccc23)NC(=O)[C@H](Cc2c[nH]cn2)NC(=O)[C@@H]2CCC(=O)N2)C(=O)N[C@@H](CC(C)C)C(=O)N[C@@H](CCCN=C(N)N)C(=O)N2CCC[C@H]2C(=O)NCC(N)=O)c(C)c1 please.
Key: 2

Exercise: Quote Potency reported for CC(C)C[C@H](NC(=O)[C@@H](Cc1ccc2ccccc2c1)NC(=O)[C@H](Cc1ccc(O)cc1)NC(=O)[C@H](CO)NC(=O)[C@H](Cc1c[nH]c2ccccc12)NC(=O)[C@H](Cc1c[nH]cn1)NC(=O)[C@@H]1CCC(=O)N1)C(=O)N[C@@H](CCCN=C(N)N)C(=O)N1CCC[C@H]1C(=O)NCC(N)=O please.
Key: 1.9

Exercise: Quote Potency reported for COc1cc(C[C@@H](NC(=O)[C@H](Cc2ccc(O)cc2)NC(=O)[C@H](CO)NC(=O)[C@H](Cc2c[nH]c3ccccc23)NC(=O)[C@H](Cc2c[nH]cn2)NC(=O)[C@@H]2CCC(=O)N2)C(=O)N[C@@H](CC(C)C)C(=O)N[C@@H](CCCN=C(N)N)C(=O)N2CCC[C@H]2C(=O)NCC(N)=O)cc(OC)c1OC please.
Key: 1.4

Exercise: Quote Potency reported for CCNC(=O)[C@@H]1CCCN1C(=O)[C@H](CCCN=C(N)N)NC(=O)[C@H](CC(C)C)NC(=O)[C@@H](CC(c1ccccc1)c1ccccc1)NC(=O)[C@H](Cc1ccc(O)cc1)NC(=O)[C@H](CO)NC(=O)[C@H](Cc1c[nH]c2ccccc12)NC(=O)[C@H](Cc1c[nH]cn1)NC(=O)[C@@H]1CCC(=O)N1 please.
Key: 0.9

Exercise: Quote Potency reported for Cc1cc(C)c(C[C@@H](NC(=O)[C@H](Cc2ccc(O)cc2)NC(=O)[C@H](CO)NC(=O)[C@H](Cc2c[nH]c3ccccc23)NC(=O)[C@H](Cc2c[nH]cn2)NC(=O)[C@@H]2CCC(=O)N2)C(=O)N(C)[C@@H](CC(C)C)C(=O)N[C@@H](CCCN=C(N)N)C(=O)N2CCC[C@H]2C(=O)NCC(N)=O)c(C)c1 please.
Key: 1.1

Exercise: Quote Potency reported for CC(C)C[C@H](NC(=O)[C@@H](Cc1c2ccccc2cc2ccccc12)NC(=O)[C@H](Cc1ccc(O)cc1)NC(=O)[C@H](CO)NC(=O)[C@H](Cc1c[nH]c2ccccc12)NC(=O)[C@H](Cc1c[nH]cn1)NC(=O)[C@@H]1CCC(=O)N1)C(=O)N[C@@H](CCCN=C(N)N)C(=O)N1CCC[C@H]1C(=O)NCC(N)=O please.
Key: 0.5

Exercise: Quote Potency reported for CC(C)C[C@H](NC(=O)[C@@H](Cc1ccc2ccccc2c1Br)NC(=O)[C@H](Cc1ccc(O)cc1)NC(=O)[C@H](CO)NC(=O)[C@H](Cc1c[nH]c2ccccc12)NC(=O)[C@H](Cc1c[nH]cn1)NC(=O)[C@@H]1CCC(=O)N1)C(=O)N[C@@H](CCCN=C(N)N)C(=O)N1CCC[C@H]1C(=O)NCC(N)=O please.
Key: 1

----------
Listed below: Potency values for each entry.
- Species on record: Rattus norvegicus
- assayMethodText: Suppression of estrus cyclicity in rat relative to [D-Trp6, ProNHEt9].
- Type: functional
Just the number, please, no unit after it.

substanceSmiles	val
CCNC(=O)[C@@H]1CCCN1C(=O)[C@H](CCCN=C(N)N)NC(=O)[C@H](CC(C)C)NC(=O)[C@@H](Cc1c[nH]c2ccccc12)NC(=O)[C@H](Cc1ccc(O)cc1)NC(=O)[C@H](CO)NC(=O)[C@H](Cc1c[nH]c2ccccc12)NC(=O)[C@H](Cc1c[nH]cn1)NC(=O)[C@@H]1CCC(=O)N1	1
CCNC(=O)[C@@H]1CCCN1C(=O)[C@H](CCCN=C(N)N)NC(=O)[C@H](CC(C)C)NC(=O)[C@@H](Cc1ccc2ccccc2c1)NC(=O)[C@H](Cc1ccc(O)cc1)NC(=O)[C@H](CO)NC(=O)[C@H](Cc1cccc2ccccc12)NC(=O)[C@H](Cc1c[nH]cn1)NC(=O)[C@@H]1CCC(=O)N1	0.9

Exercise: Quote Potency reported for CC(C)C[C@H](NC(=O)[C@@H](Cc1ccc(-c2ccccc2)cc1)NC(=O)[C@H](Cc1ccc(O)cc1)NC(=O)[C@H](CO)NC(=O)[C@H](Cc1c[nH]c2ccccc12)NC(=O)[C@H](Cc1c[nH]cn1)NC(=O)[C@@H]1CCC(=O)N1)C(=O)N[C@@H](CCCN=C(N)N)C(=O)N1CCC[C@H]1C(=O)NCC(N)=O please.
Key: 1.4

----------
Listed below: Potency values for each entry.
- Species on record: Rattus norvegicus
- assayMethodText: Suppression of estrus cyclicity in rat relative to [D-Trp6, ProNHEt9].
- Assay type: functional
Just the number, please, no unit after it.

Exercise: Quote Potency reported for CC(C)C[C@H](NC(=O)[C@@H](Cc1c(F)c(F)c(F)c(F)c1F)NC(=O)[C@H](Cc1ccc(O)cc1)NC(=O)[C@H](CO)NC(=O)[C@H](Cc1c[nH]c2ccccc12)NC(=O)[C@H](Cc1c[nH]cn1)NC(=O)[C@@H]1CCC(=O)N1)C(=O)N[C@@H](CCCN=C(N)N)C(=O)N1CCC[C@H]1C(=O)NCC(N)=O please.
Key: 1.2

Exercise: Quote Potency reported for CCNC(=O)[C@@H]1CCCN1C(=O)[C@H](CCCN=C(N)N)NC(=O)[C@H](CC(C)C)NC(=O)[C@@H](Cc1ccc2ccccc2c1)NC(=O)[C@H](Cc1ccc(O)cc1)NC(=O)[C@H](CO)NC(=O)[C@H](Cc1c[nH]c2ccccc12)NC(=O)[C@H](Cc1c[nH]cn1)NC(=O)[C@@H]1CCC(=O)N1 please.
Key: 0.9

Exercise: Quote Potency reported for CC(C)C[C@H](NC(=O)[C@@H](Cc1ccc(C(F)(F)F)cc1)NC(=O)[C@H](Cc1ccc(O)cc1)NC(=O)[C@H](CO)NC(=O)[C@H](Cc1c[nH]c2ccccc12)NC(=O)[C@H](Cc1c[nH]cn1)NC(=O)[C@@H]1CCC(=O)N1)C(=O)N[C@@H](CCCN=C(N)N)C(=O)N1CCC[C@H]1C(=O)NCC(N)=O please.
Key: 1.4
